Molecular target: human TLR9 (Homo sapiens (Human), UniProt Q9NR96)
Sequence (Q9NR96 26-1032): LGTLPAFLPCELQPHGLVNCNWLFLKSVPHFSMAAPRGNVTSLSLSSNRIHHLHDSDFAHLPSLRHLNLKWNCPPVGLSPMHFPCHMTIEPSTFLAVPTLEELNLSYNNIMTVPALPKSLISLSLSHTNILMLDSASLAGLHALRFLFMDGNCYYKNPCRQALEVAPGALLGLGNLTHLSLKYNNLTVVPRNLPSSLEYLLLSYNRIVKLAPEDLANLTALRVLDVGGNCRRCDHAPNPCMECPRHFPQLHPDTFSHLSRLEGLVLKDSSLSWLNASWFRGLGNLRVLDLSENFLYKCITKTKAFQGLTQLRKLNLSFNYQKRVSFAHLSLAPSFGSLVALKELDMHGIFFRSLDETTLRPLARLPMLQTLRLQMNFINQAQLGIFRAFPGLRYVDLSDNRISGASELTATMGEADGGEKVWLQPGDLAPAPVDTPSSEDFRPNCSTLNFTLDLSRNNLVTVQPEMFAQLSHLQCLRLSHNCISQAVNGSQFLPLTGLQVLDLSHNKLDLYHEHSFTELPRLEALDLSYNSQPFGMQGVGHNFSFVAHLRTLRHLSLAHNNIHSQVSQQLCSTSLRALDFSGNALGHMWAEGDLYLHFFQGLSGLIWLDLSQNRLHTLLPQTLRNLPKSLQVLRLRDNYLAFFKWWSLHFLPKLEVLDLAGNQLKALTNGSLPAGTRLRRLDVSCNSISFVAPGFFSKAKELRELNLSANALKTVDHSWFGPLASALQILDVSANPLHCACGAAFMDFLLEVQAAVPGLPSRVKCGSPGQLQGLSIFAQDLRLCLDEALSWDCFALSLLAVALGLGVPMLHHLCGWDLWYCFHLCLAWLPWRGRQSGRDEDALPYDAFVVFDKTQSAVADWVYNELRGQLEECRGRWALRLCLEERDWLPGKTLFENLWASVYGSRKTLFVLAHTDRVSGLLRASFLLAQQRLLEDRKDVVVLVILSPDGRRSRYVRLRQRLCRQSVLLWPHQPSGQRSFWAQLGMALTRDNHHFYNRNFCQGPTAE
Assay: TLR9 inhibition reporter assay (HEK-Blue SEAP);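 also: SEAP driven by an IFN-β minimal promoter with NF-κB and AP-1 sites, read after 22 h, compounds dosed 0.05 nM–50 µM, inhibition scaled between agonist plus DMSO and reference-inhibitor wells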
Conditions: read-out: TLR9 IC50; HEK-Blue human TLR9 cells, ODN2006 5 nM
Reported metric: IC50 (µM)

Answered examples (3):
[
  {
    "Compound": "Cc1c(-c2[nH]c3ccc(N4CCN(C(=O)CN5CCC5)C[C@@H]4C)nc3c2C(C)C)cn2ncnc2c1C",
    "Reported metric": "IC50",
    "Reading unit": "µM",
    "Measured": 5.79
  },
  {
    "Compound": "CCN(CC)CC(=O)N1CCN(c2ccc3[nH]c(-c4cn5ncnc5c(C)c4C)c(C(C)C)c3n2)CC1",
    "Reported metric": "IC50",
    "Reading unit": "µM",
    "Measured": 12.7
  },
  {
    "Compound": "Cc1c(-c2[nH]c3ccc(C4CCC(N5CCC6(COC6)C5)CC4)nc3c2C(C)C)cn2ncnc2c1C (stereo not shown) [Example 1060]",
    "Reported metric": "IC50",
    "Reading unit": "µM",
    "Measured": 2.6
  }
]

a: Cc1c(-c2[nH]c3ccc(C4CC5(C4)CN(CC(C)(C)O)C5)nc3c2C(C)C)cn2ncnc2c1C
b: Cc1c(-c2[nH]c3ccc(N4C[C@@H](C)N(C(=O)CCN5CCC5)C[C@@H]4C)nc3c2C(C)C)cn2ncnc2c1C
c: Cc1c(-c2[nH]c3ccc(N4C[C@@H](C)N(C(=O)CCN5CCOCC5(C)C)C[C@@H]4C)nc3c2C(C)C)cn2ncnc2c1C
d: Cc1c(-c2[nH]c3ccc(N4CCN(C(=O)CN(C)CC5CC5)CC4)nc3c2C(C)C)cn2ncnc2c1C
Please rank these compounds by IC50 in descending order. Field: ranking. Enter the labels in the order requested. c, a, d, b
(c: 35.3 µM, a: 17 µM, d: 6.02 µM, b: 3.29 µM)
